// provenance: BigSolDB 2.1

Measurement Context: in ethanol, 316.4 K
Readout: solubility (mole fraction)
Give bare numbers.

Could you tell me which solubility (mole fraction) is on file for CC(=O)c1ccc2ccccc2c1O ?
0.015

----------
Measurement Context: in n-hexane, 314.8 K
Readout: solubility (mole fraction)

For CC(=O)c1c(O)ccc2ccccc12 , what is its reported solubility (mole fraction)?
0.0414

----------
Measurement Context: in ethanol, 293.05 K
Readout: solubility (mole fraction)
Numbers only.

Need solubility (mole fraction) of CC(=O)c1c(O)ccc2ccccc12 , thanks.
0.0859

----------
Measurement Context: in n-heptane, 317.15 K
Readout: solubility (mole fraction)
One number for each entry.

Fill in: solubility (mole fraction) of CC(=O)c1c(O)ccc2ccccc12 is ___
0.056
